- measurement notes: self-splicing fitness, log relative to wild type (ln ratio); higher = more splicing; Tetrahymena group I intron in knt gene, E. coli kanamycin selection, DiMSum; sequences stand for … in CUCUCU…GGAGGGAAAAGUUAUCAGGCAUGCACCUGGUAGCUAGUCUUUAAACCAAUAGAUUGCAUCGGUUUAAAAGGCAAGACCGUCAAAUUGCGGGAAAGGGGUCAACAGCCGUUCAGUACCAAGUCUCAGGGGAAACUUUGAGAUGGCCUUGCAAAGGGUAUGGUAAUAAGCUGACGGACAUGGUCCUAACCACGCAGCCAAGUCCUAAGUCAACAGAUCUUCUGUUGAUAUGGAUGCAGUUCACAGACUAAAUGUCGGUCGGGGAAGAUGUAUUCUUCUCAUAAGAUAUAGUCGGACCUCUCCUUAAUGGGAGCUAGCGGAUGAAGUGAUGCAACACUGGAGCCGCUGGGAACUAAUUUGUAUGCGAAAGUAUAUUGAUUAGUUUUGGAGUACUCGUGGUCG;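 note: selection with 25 µg/mL kanamycin versus none on LB agar overnight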
- setup conditions: 37 °C
readout name: self-splicing fitness (ln)
# output: bare number, no unit

For the sequence shown here, CACCAGCAAUAUUACGGGGC , give the reported self-splicing fitness (ln).
-1.29

Note, next up: AGUGAGCAAUAUUACGGUUC
-1.7

Next entry: UAGUAGCAAUAUUACGCUCU
-0.589

Follow-up entry: UGAGAGCAAUAUUACGAACU
-2.02

Now the sequence CACAAGCAAUAUUACGAAGC
-1.87

What do you get for AAUGAGCAAUAUUACGACGU ?
-0.443

Same read-out for CUGCAGCAAUAUUACGAAGA ?
-2.17

Same read-out for CCCAAGCAAUAUUACGAGCU ?
-2.44

Same thing, different sequence: CCACAGCAAUAUUACGCCUA
-2.79

And GAAUAGCAAUAUUACGGCGC ?
0.023

// next record CGCUAGCAAUAUUACGGUCU
-0.659

Okay, and CCUGAGCAAUAUUACGUAGG ?
-2.24

Query AUGCAGCAAUAUUACGGCAU next
-2.61

One more sequence: GCGAAGCAAUAUUACGGGAA
-2.68

And for AAAUAGCAAUAUUACGGAGU ?
-2.61

Moving on to the next sequence: AACGAGCAAUAUUACGCAGA
-2.18

And what about the sequence CAACAGCAAUAUUACGUGCC ?
-1.59

Likewise for AACAAGCAAUAUUACGUUAU ?
-2.13

Similarly, GAGCAGCAAUAUUACGGGAA ?
-2.05

What about this sequence? CCGAAGCAAUAUUACGGGUA
-2.35

Moving on to the next sequence: GGAAAGCAAUAUUACGCACG
0.0479

Same thing, different sequence: UUCAAGCAAUAUUACGAGUU
-0.389

Now try CGCUAGCAAUAUUACGUCAU .
-1.25

Queued: AUUCAGCAAUAUUACGUGGC
-2.21

Same for CAUUAGCAAUAUUACGUCUC
-1.76

Same read-out for GUUUAGCAAUAUUACGGGCA ?
-0.96

Next sequence: CUAUAGCAAUAUUACGCUUU
-3.17

Here is the next sequence: ACGCAGCAAUAUUACGCCCA
-0.153

Same again, this time with UCGAAGCAAUAUUACGAUGG
-0.538

Input CAAUAGCAAUAUUACGGCCA
-1.49

Try this sequence next: UUAUAGCAAUAUUACGCCCA
-0.787

Item: UAUCAGCAAUAUUACGAGCA
-0.124

Param item: CUAAAGCAAUAUUACGAGUA
-2.73

Same lookup for AACAAGCAAUAUUACGACAA , please.
-1.18

Also check CCUCAGCAAUAUUACGGCUU
-2.28

Next: GACCAGCAAUAUUACGGUGG
-0.875
